Can you tell me pIC50 for the items I'm about to list?
- experimental-system: p38 (Homo sapiens, UniProt Q16539)
- Sequence (Q16539 whole entry): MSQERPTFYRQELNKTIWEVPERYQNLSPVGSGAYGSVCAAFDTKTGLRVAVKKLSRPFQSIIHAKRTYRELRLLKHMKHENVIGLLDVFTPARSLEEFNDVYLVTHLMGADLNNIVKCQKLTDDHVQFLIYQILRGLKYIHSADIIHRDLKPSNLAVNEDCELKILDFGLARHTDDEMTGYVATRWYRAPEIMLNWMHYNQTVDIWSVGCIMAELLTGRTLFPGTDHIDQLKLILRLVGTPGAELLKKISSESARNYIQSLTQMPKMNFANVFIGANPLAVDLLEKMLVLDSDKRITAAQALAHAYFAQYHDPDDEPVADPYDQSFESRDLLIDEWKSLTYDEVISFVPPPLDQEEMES
- procedure-text: p38 inhibition assay: inhibition of phosphorylation of EGF receptor peptide
- run-conditions: activated p38 (5 nM), EGF receptor peptide 200 μM, ATP 100 μM, 30 min at 30° C., pH 7.6, HPLC
One number for each entry, as −log10 of the molar value.

These solved cases illustrate the format of a correct answer.
INSERT INTO assay_data (molecule, readout_value) VALUES
  ('COc1cc(OC)c(NC(=O)Nc2ccc(Cl)c(Cl)c2)cc1Cl [Compound 24]', 6.30),
  ('COc1cc(OC)c(NC(=O)Nc2ccccc2)cc1Cl [Compound 25]', 6.00),
  ('O=C(Nc1cccc(C(=O)O)c1)Nc1ccc(Cl)c(Cl)c1 [Compound 63]', 5.24);

Please give pIC50 for each item listed below.
1. COc1cc(OC)c(NC(=O)Nc2cccc(F)c2)cc1Cl [Compound 35]
2. Cc1cc(NC(=O)Nc2ccccc2)c(Cl)cc1F [Compound 15]

1. 6.20
2. 5.24

Dear reader, for each entry below, please note its pIC50.
1. COc1cc(Cl)c(C)cc1NC(=O)Nc1ccccc1 [Compound 4]
2. CCOc1ccccc1NC(=O)Nc1ccc(Cl)c(Cl)c1 [Compound 121]
3. O=C(Nc1ccc(Cl)c(Cl)c1)Nc1ccc(Cl)c(Cl)c1 [Compound 64]
4. NC(=O)c1ccccc1NC(=O)Nc1ccc(Cl)c(Cl)c1 [Compound 107]
5. O=C(Nc1ccc(Cl)c(Cl)c1)Nc1ccccc1Cl [Compound 122]

[7.00, 5.66, 6.89, 7.00, 4.82]

Sourced from patent US6093742A
